Test: Pharmacokinetics from plasma levels after i.p. administration to rats
Assay type: in vivo, rat
Details: rat, ip, plasma, i.p. 80 mg/kg, mean, read-out: Vss/F
Experimental: The pharmacokinetics (PK) of racemic-MSPC and its two individual enantiomers were studied following i.p. (80 mg/kg) to rats and their major PK parameters were estimated. The study details were as described previously[8] and plasma and brain levels of racemic-MSPC and it individual enantiomers were monitored at: 20, 40, 60, 90, 120, 160, 180, 200, 220, 260, 320, and 360 min after dosing. Plasma and brain concentrations of each compound were quantified by an HPLC assay. […]
measure: Vd/F (L/kg)
State just the number; it will be interpreted in L/kg.

Lookup: Any idea what its Vd/F is? The molecule is CCC(C)CCOC(=O)Nc1ccc(S(N)(=O)=O)cc1 (racemic) [MSPC (racemate)]
Found: 2.2
